- experimental.protocol: osmotic lysis modulators in infected erythrocytes, primary screen, PSAC antagonist project, cell-based, P. falciparum Indochina, OD700, 3 h (AID 1156)
- particulars: higher = more signal, called active from +8 up or from −8 down

smiles.structure	z-score
Cc1ccc(S[C@]2(C(=O)NCCCN(C)C)CC(=O)N(Cc3cc(C(F)(F)F)cc(C(F)(F)F)c3)[C@@H]2c2ccc(CO)cc2)cc1	-0.0534
COC(=O)[C@@]1(Cc2ccc(OC)cc2)[C@H]2c3cc(C(=O)N4CCCC4)n(Cc4ccc(O)c(OC)c4)c3C[C@H]2CN1C(=O)c1ccccc1	1.04
C=C[C@H](OC)[C@@H](OC(=O)Nc1ccc(OC)cc1)c1ccc(O)c(F)c1	-0.433
CCOC(=O)C[C@H]1[C@H](OC(=O)c2ccc(C(=O)c3ccccc3)cc2)[C@@H](NC(=O)c2ccccc2)c2cc(OCCCO)ccc2N1C(=O)c1ccc2ccccc2n1	-0.2
CCC[C@@H]1C[C@@]1(CCC)[C@@H](NS(=O)(=O)c1cccc2cccnc12)c1ccc(Cl)cc1	-1.01
C=CCOC(=O)[C@H]1[C@@H]2C(=O)O[C@@H](c3ccccc3)[C@@H](c3ccccc3)N2[C@@H](c2ccc(OCCOC(=O)[C@@H]3C[C@@H]4C(=O)N[C@@H](CC(C)C)C(=O)N4[C@@H]3c3ccc(O)cc3)cc2)[C@]12C(=O)Nc1ccccc12	4.45
